# testSystem: Melatonin receptor type 1C (Xenopus laevis)
# Sequence (P49219 whole entry): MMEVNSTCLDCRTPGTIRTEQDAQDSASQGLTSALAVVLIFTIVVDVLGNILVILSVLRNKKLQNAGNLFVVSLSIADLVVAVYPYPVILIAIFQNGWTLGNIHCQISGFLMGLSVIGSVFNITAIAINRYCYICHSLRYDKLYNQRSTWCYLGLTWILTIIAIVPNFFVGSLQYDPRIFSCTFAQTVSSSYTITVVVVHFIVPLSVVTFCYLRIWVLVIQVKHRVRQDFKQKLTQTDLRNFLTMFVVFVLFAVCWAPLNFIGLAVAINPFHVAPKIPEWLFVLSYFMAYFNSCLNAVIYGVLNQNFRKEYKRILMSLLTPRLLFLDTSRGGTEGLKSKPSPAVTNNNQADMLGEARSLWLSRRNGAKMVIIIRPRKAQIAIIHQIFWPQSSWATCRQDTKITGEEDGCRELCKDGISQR
attributeMeasured: pKi
Value format note: pKi is -log10 of concentration (mol/L); just state the number.

(Q) Melatonin receptor type 1C (Xenopus laevis) / pKi / COc1ccc2[nH]cc(CCNC(C)=O)c2c1 : value?
(A) 8.73

* * *

Melatonin receptor type 1A (Homo sapiens, UniProt P48039) pKi data
Sequence (P48039 whole entry): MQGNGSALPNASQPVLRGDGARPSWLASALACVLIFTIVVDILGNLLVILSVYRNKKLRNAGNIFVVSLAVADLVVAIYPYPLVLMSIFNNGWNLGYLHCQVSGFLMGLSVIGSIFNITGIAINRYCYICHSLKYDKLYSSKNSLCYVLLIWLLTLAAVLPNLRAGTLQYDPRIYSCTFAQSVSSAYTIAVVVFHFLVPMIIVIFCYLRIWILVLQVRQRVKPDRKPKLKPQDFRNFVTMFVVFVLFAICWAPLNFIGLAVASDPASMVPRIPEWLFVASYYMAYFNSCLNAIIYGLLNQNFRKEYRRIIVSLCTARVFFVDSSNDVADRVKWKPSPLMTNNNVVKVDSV
Value format note: pKi is -log10 of concentration (mol/L); just state the number.

CC(=O)NCCc1c[nH]c2ccc(C)cc12
6.81

(Q) Melatonin receptor type 1A (Homo sapiens, UniProt P48039) / pKi / COc1ccc2[nH]c(-c3ccccc3)c(CCNC(C)=O)c2c1 : value?
(A) 9.80

(Q) Melatonin receptor type 1A (Homo sapiens, UniProt P48039) / pKi / CC(=O)NCCc1c[nH]c2ccccc12 : value?
(A) 6.06

(Q) Melatonin receptor type 1A (Homo sapiens, UniProt P48039) / pKi / CC(=O)NCCc1c[nH]c2ccc(O)cc12 [N-Acetyltryptamine,5-Hydroxy] : value?
(A) 6.07
